// provenance: the supplement of paper PMC10567573

# protein stability index per record follows
B1: KCNG1 (parent)
chain: LFVTVTAVNLSVSTLPSLREEEEQ

# Variants of: B1
# Measurement protocol: protein stability index of a GFP-peptide fusion (GPS, HEK-293T) (PSI 1-6); higher = more stable;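 further: lentivirally expressed fusions sorted by FACS into six bins by GFP to DsRed ratio, PSI derived from sequencing read proportions per bin multiplied by bin number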
# Condition: c terminus: a fixed tail appended
Give the value as a plain number.

Recorded protein stability index, per entry:
Mutation string | protein stability index
A7H | 2.5
F2K | 1.72

I have this variant here, `P16M` , and I need its recorded protein stability index.
3.14

What would you report for `L18N` ?
2.47

What would you report for `E22H` ?
1.61

What would you report for `V8Y` ?
2.15

What would you report for `V5P` ?
4.91

What would you report for `L10V` ?
1.9

What would you report for `V3A` ?
2.67

What would you report for `L1C` ?
2.1

What would you report for `E20D` ?
1.67
